biological target: HCV-NS5b (Hepatitis C virus genotype 1b); construct: (His)6 (C); made in house; host or cells: XL-1 cells (E. coli), IPTG-inducible plasmid, nickel-NTA purification; experiment: HCV-NS5b enzyme assay (incorporation of radiolabeled UTP); format: biochemical; details: enzyme inhibition at compound concentration of 33 uM
Item-by-item account of inhibition at 33 µM
Report the figure in % without appending any unit label.

- CCOCCOc1ccc(-c2ccc(Cl)cc2)c(-c2ccc3cc(-c4nc5cc(C(=O)O)ccc5n4C4CCCCC4)ccc3n2)c1 [Compound 507]: 101
- Cc1cc(-c2ccc3cc(-c4nc5cc(C(=O)O)ccc5n4C4CCCCC4)ccc3n2)c(-c2ccccc2)s1 [Compound 472]: 97.1
- O=C(O)[C@@H]1Cc2ccccc2CN1C(=O)c1ccc2c(c1)nc(-c1ccc3nc(-c4ccccc4)cnc3c1)n2C1CCCCC1 [Compound 520]: 94.8
- COc1ccc(-c2ccc(Cl)cc2)c(-c2ccc3cc(-c4nc5cc(C(=O)O)ccc5n4CC4CCCO4)ccc3n2)c1 (stereo not drawn) [Compound 566]: 99.2
- O=C(O)c1ccc2c(c1)nc(-c1ccc3nc(-c4ccc(Oc5ccc(Cl)cc5)cc4Cl)ccc3c1)n2C1CCCCC1 [Compound 492]: 99.2

Attention now turns to another entry.
Form field: inhibition at 33 µM recorded for COc1ccc(-c2nc3ccc(-c4nc5cc(C(=O)O)ccc5n4C4CCCCC4)cc3nc2-c2ccc(OC)cc2)cc1 [Compound 441] with HCV-NS5b (Hepatitis C virus genotype 1b) (enter value)
97.3
